TARGET_ENTITY: Huntingtin (Homo sapiens) (UniProt P42858)
Sequence (P42858 whole entry, looked up, stated change not applied): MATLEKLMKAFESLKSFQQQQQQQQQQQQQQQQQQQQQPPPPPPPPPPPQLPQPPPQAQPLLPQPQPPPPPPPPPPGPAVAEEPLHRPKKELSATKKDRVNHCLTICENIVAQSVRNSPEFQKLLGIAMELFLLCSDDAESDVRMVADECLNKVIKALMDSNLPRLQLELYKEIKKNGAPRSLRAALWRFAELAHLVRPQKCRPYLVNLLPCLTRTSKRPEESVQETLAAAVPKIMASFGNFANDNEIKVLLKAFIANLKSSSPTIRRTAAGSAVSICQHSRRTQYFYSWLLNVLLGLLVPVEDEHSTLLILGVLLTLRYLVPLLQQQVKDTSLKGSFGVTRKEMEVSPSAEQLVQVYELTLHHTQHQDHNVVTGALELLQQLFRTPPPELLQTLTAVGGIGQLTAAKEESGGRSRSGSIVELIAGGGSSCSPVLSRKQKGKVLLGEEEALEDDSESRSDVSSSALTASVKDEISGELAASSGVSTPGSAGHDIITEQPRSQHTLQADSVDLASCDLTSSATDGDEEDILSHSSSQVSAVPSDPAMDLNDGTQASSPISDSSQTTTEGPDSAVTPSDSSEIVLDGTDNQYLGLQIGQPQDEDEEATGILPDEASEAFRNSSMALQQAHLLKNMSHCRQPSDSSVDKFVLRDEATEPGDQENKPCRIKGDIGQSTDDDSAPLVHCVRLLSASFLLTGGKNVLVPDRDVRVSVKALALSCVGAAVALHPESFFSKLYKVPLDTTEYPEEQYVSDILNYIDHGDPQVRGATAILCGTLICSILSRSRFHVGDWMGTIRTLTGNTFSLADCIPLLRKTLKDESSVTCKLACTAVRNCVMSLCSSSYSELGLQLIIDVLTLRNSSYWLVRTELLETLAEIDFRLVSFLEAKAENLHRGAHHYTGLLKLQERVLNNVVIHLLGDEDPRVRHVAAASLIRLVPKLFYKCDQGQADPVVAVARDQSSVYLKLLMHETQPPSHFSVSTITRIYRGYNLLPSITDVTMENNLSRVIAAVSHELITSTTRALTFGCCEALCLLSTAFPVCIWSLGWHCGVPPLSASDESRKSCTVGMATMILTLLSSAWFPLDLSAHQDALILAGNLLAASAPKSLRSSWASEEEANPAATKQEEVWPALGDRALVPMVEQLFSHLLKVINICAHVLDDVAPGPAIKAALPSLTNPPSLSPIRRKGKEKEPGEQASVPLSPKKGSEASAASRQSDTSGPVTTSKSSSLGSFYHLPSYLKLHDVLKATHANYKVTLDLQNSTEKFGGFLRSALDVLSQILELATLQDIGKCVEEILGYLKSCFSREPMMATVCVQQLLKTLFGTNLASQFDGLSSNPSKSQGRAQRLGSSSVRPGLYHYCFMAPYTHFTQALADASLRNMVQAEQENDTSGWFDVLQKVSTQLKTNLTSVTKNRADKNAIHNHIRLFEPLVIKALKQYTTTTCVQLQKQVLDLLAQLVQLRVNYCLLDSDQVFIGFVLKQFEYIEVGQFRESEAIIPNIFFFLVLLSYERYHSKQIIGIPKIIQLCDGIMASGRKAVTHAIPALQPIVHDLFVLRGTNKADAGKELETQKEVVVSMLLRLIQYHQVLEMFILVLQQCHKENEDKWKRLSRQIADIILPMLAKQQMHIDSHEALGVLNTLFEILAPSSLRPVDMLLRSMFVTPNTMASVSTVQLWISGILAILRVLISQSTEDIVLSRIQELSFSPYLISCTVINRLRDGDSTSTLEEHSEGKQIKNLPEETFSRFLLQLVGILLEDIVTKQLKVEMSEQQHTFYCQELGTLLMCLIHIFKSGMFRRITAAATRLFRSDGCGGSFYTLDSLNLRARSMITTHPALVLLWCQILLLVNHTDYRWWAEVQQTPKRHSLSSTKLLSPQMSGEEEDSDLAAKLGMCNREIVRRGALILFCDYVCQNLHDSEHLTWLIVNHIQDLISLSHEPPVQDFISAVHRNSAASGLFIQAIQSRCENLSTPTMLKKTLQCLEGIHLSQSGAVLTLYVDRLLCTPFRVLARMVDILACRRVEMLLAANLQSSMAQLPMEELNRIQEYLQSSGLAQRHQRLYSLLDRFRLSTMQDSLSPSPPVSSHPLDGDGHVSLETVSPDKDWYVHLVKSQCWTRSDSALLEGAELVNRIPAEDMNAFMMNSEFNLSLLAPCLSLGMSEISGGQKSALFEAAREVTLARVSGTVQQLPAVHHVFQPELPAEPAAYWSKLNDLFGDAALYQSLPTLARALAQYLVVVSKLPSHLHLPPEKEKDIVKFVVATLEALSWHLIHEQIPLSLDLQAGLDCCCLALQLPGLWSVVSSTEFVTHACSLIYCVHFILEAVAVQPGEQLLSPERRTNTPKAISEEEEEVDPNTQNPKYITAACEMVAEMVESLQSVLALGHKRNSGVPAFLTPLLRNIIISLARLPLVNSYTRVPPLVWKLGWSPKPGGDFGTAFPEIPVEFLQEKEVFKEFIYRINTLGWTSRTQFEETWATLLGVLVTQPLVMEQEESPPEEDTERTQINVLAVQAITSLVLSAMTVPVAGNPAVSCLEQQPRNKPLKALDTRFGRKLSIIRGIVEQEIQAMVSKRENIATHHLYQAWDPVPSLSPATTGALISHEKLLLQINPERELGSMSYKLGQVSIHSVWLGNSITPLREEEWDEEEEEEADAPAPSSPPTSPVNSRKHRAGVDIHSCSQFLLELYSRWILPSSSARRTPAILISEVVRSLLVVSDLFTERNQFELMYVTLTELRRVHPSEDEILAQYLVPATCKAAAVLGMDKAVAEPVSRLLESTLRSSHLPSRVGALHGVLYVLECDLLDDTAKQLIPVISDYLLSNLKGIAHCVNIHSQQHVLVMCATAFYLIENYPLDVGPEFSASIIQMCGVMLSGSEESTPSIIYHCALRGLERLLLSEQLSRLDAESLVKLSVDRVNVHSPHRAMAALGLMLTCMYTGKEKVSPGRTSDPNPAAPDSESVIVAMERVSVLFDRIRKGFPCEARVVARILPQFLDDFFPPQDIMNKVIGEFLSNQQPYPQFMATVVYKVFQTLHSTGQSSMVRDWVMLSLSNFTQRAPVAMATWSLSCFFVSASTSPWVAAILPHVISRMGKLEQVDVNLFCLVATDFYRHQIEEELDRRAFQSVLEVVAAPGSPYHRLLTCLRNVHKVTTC
ASSAY_COMMENT: mutant huntingtin-calmodulin interaction inhibitors – biochemical, AlphaScreen, primary screen (AID 1671202);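 also: 0% = both proteins with DMSO and 100% = one protein alone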
MEASUREMENT_PARAMETERS: AlphaScreen His-mHTT/GST-CaM binding, luminescence; at 15 µM, stronger effect = higher value
Hit rate of the full screen: of about 190,000 compounds, about 6,900 (3.6%) were called active. This is one part of a sample in which actives are shown more often than they occur.
TEST_READOUT: inhibition (%)
Number only, in %; omit the unit.

Check out these entries, answers already filled in.
CC1(C)CC(=O)c2sc(NC(=O)C(C)(C)Oc3ccc(Cl)cc3)nc2C1 ... -1
Cc1ccc(Cl)cc1N1CCN(C(=O)Cn2nc(C(F)(F)F)c(Br)c2C)CC1 ... -5
CCCCN1C(=O)C(C)(C(=O)Nc2cccc(OC)c2)Oc2cccnc21 (stereo not given) ... 4.7

Summary line: CN(C(=O)Cc1c[nH]c2ccccc12)C1(C(=O)NC2CCCCC2)CCCCC1 , Huntingtin (Homo sapiens) (UniProt P42858), reported inhibition = 6

Summary line: CN(C)C(=O)c1cnn(-c2ccccc2)c1-n1cccc1 , Huntingtin (Homo sapiens) (UniProt P42858), reported inhibition = 2.9

---

TARGET_ENTITY: Huntingtin (Homo sapiens) (UniProt P42858)
ASSAY_COMMENT: mutant huntingtin-calmodulin interaction inhibitors – biochemical, AlphaScreen, primary screen (AID 1671202);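 also: 0% = both proteins with DMSO and 100% = one protein alone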
MEASUREMENT_PARAMETERS: AlphaScreen His-mHTT/GST-CaM binding, luminescence; at 15 µM
The whole screen tested about 190,000 compounds, of which about 6,900 (3.6%) were called active. No stated cut-off is given here; in the data, active means inhibition above about 50%; inactive means the rest. The sample as a whole holds a higher share of actives than the screen did.
Can you answer with just one of these options? true (active), false (inactive)

Example entries begin here.
CN(C)C(=O)c1cc2c(s1)CCC(C(=O)NCc1ccccc1Cl)C2 (stereo unspecified) ... false
CC(C)c1ccc(N2CC(C(=O)N(C)Cc3ccccc3)CC2=O)cc1 (stereo unspecified) ... true
Cc1cc(OCC(=O)N2N=C(C(F)(F)F)CC2(O)C(C)(C)C)ccc1Cl (stereo unspecified) ... true
Cc1ccc(N2CC(C(=O)N(C)C(C)C)CC2=O)cc1 (stereo unspecified) ... false
COCCCNC(=O)c1c(NC(=O)c2ccccc2Cl)sc2c1CCCC2 ... false

Shifting focus to the molecule that follows.
Task item: Hi, sorry to bother you, what did the test record for Cc1cc(OCC(=O)Nc2ccc(Cl)cn2)ccc1Cl ?
Reply: false

---

TARGET_ENTITY: Huntingtin (Homo sapiens) (UniProt P42858)
ASSAY_COMMENT: mutant huntingtin-calmodulin interaction inhibitors – biochemical, AlphaScreen, primary screen (AID 1671202);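 also: 0% = both proteins with DMSO and 100% = one protein alone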
MEASUREMENT_PARAMETERS: AlphaScreen His-mHTT/GST-CaM binding, luminescence; at 15 µM
Out of some 190,000 compounds screened, about 6,900 (3.6%) were called active. No stated cut-off is given here; in the data, active means inhibition above about 50%; inactive means the rest. What follows is part of a selection rich in actives, with near analogues and random picks from the rest.
Can you answer with just one of these options? active, inactive

Example entries begin here.
O=C(Nc1ccccc1-c1nc2ccccc2[nH]1)c1ccccc1Cl ... inactive
O=C(NCC1CCCO1)N1CCc2nc3cc(-c4ccccc4Cl)[nH]n3c(=O)c2C1 (configuration not stated) ... inactive
CCCNC(=O)c1nn2c(c1Cl)NC(c1ccc(Cl)cc1)CC2C(F)(F)F (configuration not stated) ... inactive
CCCCS(=O)(=O)N1CCc2c(nc3cc(-c4ccccc4Cl)[nH]n3c2=O)C1 ... inactive

Task item: Hi, sorry to bother you, what did the test record for O=C1CC[C@@]23CCCN2C(=O)CCC[C@H]3[C@H]1Cc1ccccc1 ?
Reply: inactive

Task item: Hi, sorry to bother you, what did the test record for COc1cccc2sc(N(C)CC(=O)Nc3nc(C)cs3)nc12 ?
Reply: inactive

Task item: Hi, sorry to bother you, what did the test record for COc1ccccc1CC(=O)N1CCc2c(nc3cc(-c4ccccc4Cl)[nH]n3c2=O)C1 ?
Reply: active

Task item: Hi, sorry to bother you, what did the test record for COc1ccccc1C(=O)N1CCc2c(nc3cc(-c4ccccc4Cl)[nH]n3c2=O)C1 ?
Reply: active

Task item: Hi, sorry to bother you, what did the test record for COc1ccc([N+](=O)[O-])cc1NC(=O)c1ccc(C)c(Br)c1 ?
Reply: inactive

Task item: Hi, sorry to bother you, what did the test record for COc1ccc(C2SCCN2C(=O)c2cc3ccccc3oc2=O)cc1 (configuration not stated) ?
Reply: inactive

Task item: Hi, sorry to bother you, what did the test record for O=C(O)COc1ccccc1C(c1c[nH]c2ccccc12)c1c[nH]c2ccccc12 ?
Reply: active
